Property: pIC50; scope: individual compounds
- Test system: B16F10
- Procedure Summary: In vitro cytotoxicity, MTS cell viability test, 72 h
- Type: cell-based
- Run Conditions: Mus musculus, B16-F10, 72 h
Quick note: pIC50 values are minus log10 of concentrations in mol/L.

Compound	pIC50
CC(C)=CCC/C(C)=C/CC/C(C)=C/CC/C=C(\C)CC/C=C(\C)CCCOC1CCOP(=O)(NCCCl)N1CCCl (centres unmarked) [Ifosfamide SQ]	4.14

As a next step, examine the compound that follows.
Look at this compound and give its reported pIC50. CC(C)=CCC/C(C)=C/CC/C(C)=C/CC/C=C(\C)CC/C=C(\C)CCC(=O)NCCSC1CCOP(=O)(NCCCl)N1CCCl (centres unmarked) [Ifosfamide-thio-SQ]
4.77

* * *

- System: MCF-7 MDR
- Procedure Summary: In vitro cytotoxicity, MTS cell viability test, 72 h
- Assay type: cell-based
- Run Conditions: Homo sapiens, MCF7, 72 h
Parameter Measured: pIC50
As a rule, pIC50 stands for the negative log10 of the concentration, concentration in M.

Molecule	Assayed Target	pIC50
CC(C)=CCC/C(C)=C/CC/C(C)=C/CC/C=C(\C)CC/C=C(\C)CCC(=O)NCCSC1CCOP(=O)(NCCCl)N1CCCl (centres unmarked) [Ifosfamide-thio-SQ]	MCF-7 MDR	4.10

Now for the molecule whose pIC50 we want.
GET /values?readout=pIC50&item= CC(C)=CCC/C(C)=C/CC/C(C)=C/CC/C=C(\C)CC/C=C(\C)CCCOC1CCOP(=O)(NCCCl)N1CCCl (centres unmarked) [Ifosfamide SQ]
4.10

* * *

- Tested on: B16F10
- Procedure Summary: In vitro cytotoxicity, MTS cell viability test, 72 h
- Type: cell-based
- Run Conditions: Mus musculus, B16-F10; B16F10, 72 h incubation, nanoparticle suspension, MTS; read-out: IC50
Parameter Measured: IC50

Please state recorded IC50 (tested on B16F10) of O=P1(NCCCl)OCCCN1CCCl (stereo not shown) [Ifosfamide, reference compound]
> 100 µM

* * *

- Test system: MiaPaCa-2
- Procedure Summary: In vitro cytotoxicity, MTS cell viability test, 72 h
- Assay type: cell-based
- Run Conditions: Homo sapiens, MIA PaCa-2, 72 h
- Protocol: The cells were seeded in 96-well plates (TPP). J. Pharm, 1989, 55, R1-R4. The results are expressed as percentage of untreated cells. […] IC50 values were thus calculated for each line. Ifosfamide and squalenol were used as controls.
Measured pIC50, listed per entry for reference.
The scale used: pIC50 is minus the common logarithm of the concentration in molar units.

Compound	pIC50
CC(C)=CCC/C(C)=C/CC/C(C)=C/CC/C=C(\C)CC/C=C(\C)CCC(=O)NCCSC1CCOP(=O)(NCCCl)N1CCCl (centres unmarked) [Ifosfamide-thio-SQ]	5.36

Please look up its pIC50: CC(C)=CCC/C(C)=C/CC/C(C)=C/CC/C=C(\C)CC/C=C(\C)CCCOC1CCOP(=O)(NCCCl)N1CCCl (centres unmarked) [Ifosfamide SQ]
4.49

* * *

- Tested on: IGR-OV1 (Ovary)
- Procedure Summary: In vitro cytotoxicity, MTS cell viability test, 72 h
- Type: cell-based, human
- Run Conditions: Homo sapiens, IGROV-1; IGR-OV1 (Ovary), 72 h incubation, nanoparticle suspension, MTS; read-out: IC50
pIC50: −log10 of the molar value.
Parameter Measured: pIC50

Given the compound O=P1(NCCCl)OCCCN1CCCl (stereo not shown) [Ifosfamide, reference compound] , what is its reported pIC50?
< 4.00
